Recorded Growth Rate by entry
System: U2OS
Test: Incucyte cell viability with U2OS; further: unitless GR value; below 1 slowed growth and below 0 cell loss
Assay type: toxicity, cell-based
Conditions: human, 12 h, 10 µM, compound concentration 10 uM, replicate number 2
Answer with a bare number; do not write a unit.

Observe how each entry below is paired with its result.
In [3]: df
Out[3]:
                                   compound  test_result
0  COc1cc(-c2cn[nH]c2)ccc1C(=O)Nc1ccc2c(c1)CCNCC2.Cl         0.78
1  CC(C)(C)C1CCc2c(sc(NC(=O)c3ccco3)c2C(=O)O)C1 (configuration not stated)          0.8
2  CC1CCN(C(=O)[C@H](CCn2cccc2C#N)NS(=O)(=O)c2cccc3[nH]ccc23)CC1         0.81

Now consider a different compound.
What does the record list as Growth Rate for O=C(Nc1snnc1C(=O)Nc1ccc(N2CCCC2)cc1)c1cncc(C(F)(F)F)c1 ?
0.81
